Ref: paper PMC12714728

# experimental system: H1/Bri HA, A/Brisbane/59/07 (H1N1) hemagglutinin, C-terminally biotinylated, for the CCI assay (influenza A virus A/Brisbane/59/07 …, C-terminal biotin)
# assay comment: cell-based or functional assay
Positions of bridges follow the written chain, without caps; N, C: chain ends. No end group written: not given here.
Recorded conformational change inhibition assay (CCI) IC50 values for a group of binders are listed next.
observable: conformational change inhibition assay (CCI) IC50 (µM)

binder	measured number
CYRDPLGVAGGMC (disulfide 1-13, source: synthetic peptide (manual solid phase Fmoc chemistry, iodine oxidation, RP-HPLC)) [cyclic peptide CP11]	8.52
CYRDPLGVAGEMC (not fully specified; cysteine pairing not given here) [cyclic peptide CP13]	39.4
CLYRDPLGVAGGMGC (not fully specified (bridges); cysteine pairing not given here, source: synthetic peptide (manual solid phase Fmoc chemistry, iodine oxidation, RP-HPLC)) [cyclic peptide CP8]	0.54
LYEDPLGVAGGMG (head-to-tail lactam cyclized (no template), source: synthetic peptide (manual solid phase Fmoc chemistry, RP-HPLC)) [cyclic peptide CP14]	1.24
